Target: Integrin alpha-4/beta-1 (Homo sapiens, UniProt P05556+P13612, T112H)
Experiment: Jurkat Cell Adhesion Inhibition Assay
*1 amine or outer side, *2 acyl side, *3 side chain or, on linkers, in order; H or OH if unused. Where a SMILES comes first, the peptide text is derived from it. [ ]: non-standard residue; d: D form. The star is where a group is joined. ξ: configuration not given here. X5 = O=C(c1ccc(-c2ccc(N[*:1])cc2)o1)[*:2]; X13 = CC(C(=O)[*:2])c1ccc(N[*:1])cc1; NH(2,6-Me2-phenyl) = Cc1cccc(C)c1N*; X1 = O=C(Cc1ccc(N[*:1])cc1)[*:2]; Ile(3ξ) = CCC(C)[C@H](N)C(=O)O; NH(2-Me-phenyl) = Cc1ccccc1N*; Heptanoyl = CCCCCCC(=O)*; Nle = CCCC[C@H](N)C(=O)O; Dap = NC[C@H](N)C(=O)O; CO = O=C([*:1])[*:2]
Each entry below lists one item and its recorded IC50 value.
Reply with just the number (in nM).

Solved entries (count: 3):
CCCC[C@H](NC(=O)c1ccc(-c2ccc(NC(=O)Nc3ccccc3C)cc2)o1)C(=O)N[C@@H](CC(=O)O)C(=O)N[C@H](C(=O)N1CCC[C@H]1C(N)=O)C(C)CC (some centres undefined) ({NH(2-Me-phenyl)-CO}-[X5][Nle]D[Ile(3ξ)]P-NH2)
340
CCCC[C@H](NC(=O)C(C)c1ccc(NC(=O)Nc2ccccc2C)cc1)C(=O)N[C@@H](CC(=O)O)C(=O)N[C@H](C(=O)N1CCC[C@H]1C(N)=O)C(C)CC (some centres undefined) ({NH(2-Me-phenyl)-CO}-[X13][Nle]D[Ile(3ξ)]P-NH2)
3.1
CCCCCCC(=O)NC[C@H](NC(=O)Cc1ccc(NC(=O)Nc2ccccc2C)cc1)C(=O)N[C@@H](CC(=O)O)C(=O)N[C@H](C(=O)N1CCC[C@H]1C(N)=O)C(C)CC (some centres undefined) ({NH(2-Me-phenyl)-CO}-[X1][Dap](Heptanoyl)D[Ile(3ξ)]P-NH2)
312

# context switch: different compound, same IC50
Which IC50 value belongs to CCCC[C@H](NC(=O)Cc1ccc(NC(=O)Nc2c(C)cccc2C)cc1)C(=O)N[C@@H](CC(=O)O)C(=O)N[C@H](C(=O)N1CCC[C@H]1C(N)=O)C(C)CC (some centres undefined) ({NH(2,6-Me2-phenyl)-CO}-[X1][Nle]D[Ile(3ξ)]P-NH2) ? 7.2

###

Molecular target: Integrin alpha-4/beta-1 (Homo sapiens, UniProt P05556+P13612, T112H)
Assay: Jurkat Cell Adhesion Inhibition Assay
*1 amine or outer side, *2 acyl side, *3 side chain or, on linkers, in order; H or OH if unused. Where a SMILES comes first, the peptide text is derived from it. [ ]: non-standard residue; d: D form. The star is where a group is joined. ξ: configuration not given here. X3 = O=C(CCCc1ccc(N[*:1])cc1)[*:2]; X1 = O=C(Cc1ccc(N[*:1])cc1)[*:2]; Ile(3ξ) = CCC(C)[C@H](N)C(=O)O; NH(2-Me-phenyl) = Cc1ccccc1N*; Tle = CC(C)(C)[C@H](N)C(=O)O; X12 = c1ccc(Oc2ccccc2N*)cc1; Dpg = CCCC(N)(CCC)C(=O)O; Nle = CCCC[C@H](N)C(=O)O; CO = O=C([*:1])[*:2]
measured-metric: IC50 (nM)
Give the quantity in nM, number only.

For orientation, consider the following solved cases.
CCCC[C@H](NC(=O)CCCc1ccc(NC(=O)Nc2ccccc2C)cc1)C(=O)N[C@@H](CC(=O)O)C(=O)N[C@H](C(=O)N1CCC[C@H]1C(N)=O)C(C)CC (some centres undefined) ({NH(2-Me-phenyl)-CO}-[X3][Nle]D[Ile(3ξ)]P-NH2)
100
CCCC[C@H](NC(=O)Cc1ccc(NC(=O)Nc2ccccc2Oc2ccccc2)cc1)C(=O)N[C@@H](CC(=O)O)C(=O)N[C@H](C(=O)N1CCC[C@H]1C(N)=O)C(C)CC (some centres undefined) ({X12-CO}-[X1][Nle]D[Ile(3ξ)]P-NH2)
500
CCC(C)[C@H](NC(=O)[C@H](CC(=O)O)NC(=O)[C@@H](NC(=O)Cc1ccc(NC(=O)Nc2ccccc2C)cc1)C(C)(C)C)C(=O)N1CCC[C@H]1C(N)=O (some centres undefined) ({NH(2-Me-phenyl)-CO}-[X1][Tle]D[Ile(3ξ)]P-NH2)
7.1

Switching to the query record.
Could you tell me which IC50 is on file for CCCC(CCC)(NC(=O)Cc1ccc(NC(=O)Nc2ccccc2C)cc1)C(=O)N[C@@H](CC(=O)O)C(=O)N[C@H](C(=O)N1CCC[C@H]1C(N)=O)C(C)CC (some centres undefined) ({NH(2-Me-phenyl)-CO}-[X1][Dpg]D[Ile(3ξ)]P-NH2) ? 450

###

// reported pIC50 for each item listed
Target: Integrin alpha-4/beta-1 (Homo sapiens, UniProt P05556+P13612, T112H)
Experiment: Jurkat Cell Adhesion Inhibition Assay
*1 amine or outer side, *2 acyl side, *3 side chain or, on linkers, in order; H or OH if unused. Where a SMILES comes first, the peptide text is derived from it. [ ]: non-standard residue; d: D form. The star is where a group is joined. ξ: configuration not given here. X8 = O=C(COc1ccccc1N[*:1])[*:2]; Ile(3ξ) = CCC(C)[C@H](N)C(=O)O; NH(2-Me-phenyl) = Cc1ccccc1N*; Nle = CCCC[C@H](N)C(=O)O; CO = O=C([*:1])[*:2]
pIC50 field: float, defined as -log10 of concentration (mol/L).

So what's the measured pIC50 for this one? CCCC[C@H](NC(=O)COc1ccccc1NC(=O)Nc1ccccc1C)C(=O)N[C@@H](CC(=O)O)C(=O)N[C@H](C(=O)N1CCC[C@H]1C(N)=O)C(C)CC (some centres not stated) ({NH(2-Me-phenyl)-CO}-[X8][Nle]D[Ile(3ξ)]P-NH2) 6.33

###

Target: Integrin alpha-4/beta-1 (Homo sapiens, UniProt P05556+P13612, T112H)
Assay: Jurkat Cell Adhesion Inhibition Assay
*1 amine or outer side, *2 acyl side, *3 side chain or, on linkers, in order; H or OH if unused. Where a SMILES comes first, the peptide text is derived from it. [ ]: non-standard residue; d: D form. The star is where a group is joined. ξ: configuration not given here. X14 = Cc1ccccc1NC(=O)Nc1ccc(N*)cc1; X1 = O=C(Cc1ccc(N[*:1])cc1)[*:2]; Aad = N[C@@H](CCCC(=O)O)C(=O)O; Ile(3ξ) = CCC(C)[C@H](N)C(=O)O; X4 = O=C(Cc1ccccc1N[*:1])[*:2]; NH(2-Me-phenyl) = Cc1ccccc1N*; hLeu = CC(C)CC[C@H](N)C(=O)O; β3hD = NC(CC(=O)O)CC(=O)O; Nle = CCCC[C@H](N)C(=O)O; CO = O=C([*:1])[*:2]
measured-metric: pIC50
The value called pIC50 is obtained by taking minus log10 of the concentration in mol/L.

Quick check: pIC50 of CCCC[C@H](NC(=O)Cc1ccc(NC(=O)Nc2ccccc2C)cc1)C(=O)N[C@@H](CC(=O)O)C(=O)N[C@H](C(=O)N1CCC[C@H]1C(N)=O)C(C)C ({NH(2-Me-phenyl)-CO}-[X1][Nle]DVP-NH2) ? 9.22

Quick one: pIC50 for CCCC[C@H](NC(=O)Cc1ccc(NC(=O)Nc2ccccc2C)cc1)C(=O)N[C@@H](CC(=O)O)CC(=O)N[C@H](C(=O)N1CCC[C@H]1C(N)=O)C(C)CC (stereo partly drawn) ({NH(2-Me-phenyl)-CO}-[X1][Nle][β3hD][Ile(3ξ)]P-NH2) ? 8.40

# input compound: CCCC[C@H](NC(=O)Nc1ccc(NC(=O)Nc2ccccc2C)cc1)C(=O)N[C@@H](CC(=O)O)C(=O)N[C@H](C(=O)N1CCC[C@H]1C(N)=O)C(C)CC (stereo partly specified) ({X14-CO}-[Nle]D[Ile(3ξ)]P-NH2) ; wanted: its pIC50 7.27

Need pIC50 of CCCC[C@H](NC(=O)Cc1ccc(NC(=O)Nc2ccccc2C)cc1)C(=O)N[C@@H](CCCC(=O)O)C(=O)N[C@H](C(=O)N1CCC[C@H]1C(N)=O)C(C)CC (stereo partly specified) ({NH(2-Me-phenyl)-CO}-[X1][Nle][Aad][Ile(3ξ)]P-NH2) , thanks. 8.47

Requested read-out: pIC50. Entry: CCC(C)[C@H](NC(=O)[C@H](CC(=O)O)NC(=O)[C@H](CCC(C)C)NC(=O)Cc1ccc(NC(=O)Nc2ccccc2C)cc1)C(=O)N1CCC[C@H]1C(N)=O (stereo partly specified) ({NH(2-Me-phenyl)-CO}-[X1][hLeu]D[Ile(3ξ)]P-NH2) 8.52

Need pIC50 of CCCC[C@H](NC(=O)Cc1ccccc1NC(=O)Nc1ccccc1C)C(=O)N[C@@H](CC(=O)O)C(=O)N[C@H](C(=O)N1CCC[C@H]1C(N)=O)C(C)CC (stereo partly specified) ({NH(2-Me-phenyl)-CO}-[X4][Nle]D[Ile(3ξ)]P-NH2) , thanks. 5.52
